B1: glmS ribozyme (parent)
chain: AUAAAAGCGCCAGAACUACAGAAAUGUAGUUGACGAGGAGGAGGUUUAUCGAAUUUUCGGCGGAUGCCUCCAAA

variants of: B1; assay: self-cleavage kobs at 2500 uM GlcN6P; higher = faster cleavage; RNA array; conditions: with glucosamine-6-phosphate
This sample holds only a part of the variants without activity.
reported.metric: self-cleavage kobs at 2500 uM GlcN6P (s⁻¹)
Write the answer as a number in s⁻¹, unit excluded.

variant.notation	measured.result
G40U A53C	0.00086

Item under review: G29U G37A . Reported self-cleavage kobs at 2500 uM GlcN6P?
0.000188

Hello, the source for this data is the supplement of paper PMC7125110, in case you need it.
